Target: CYP1A2 (Homo sapiens, UniProt P05177)
Construct: tissue iPhase Pharmaceutical Services (Beijing, China) Lot # 7MMC011; host or cells: pooled human liver microsomes
Sequence (P05177 1-516): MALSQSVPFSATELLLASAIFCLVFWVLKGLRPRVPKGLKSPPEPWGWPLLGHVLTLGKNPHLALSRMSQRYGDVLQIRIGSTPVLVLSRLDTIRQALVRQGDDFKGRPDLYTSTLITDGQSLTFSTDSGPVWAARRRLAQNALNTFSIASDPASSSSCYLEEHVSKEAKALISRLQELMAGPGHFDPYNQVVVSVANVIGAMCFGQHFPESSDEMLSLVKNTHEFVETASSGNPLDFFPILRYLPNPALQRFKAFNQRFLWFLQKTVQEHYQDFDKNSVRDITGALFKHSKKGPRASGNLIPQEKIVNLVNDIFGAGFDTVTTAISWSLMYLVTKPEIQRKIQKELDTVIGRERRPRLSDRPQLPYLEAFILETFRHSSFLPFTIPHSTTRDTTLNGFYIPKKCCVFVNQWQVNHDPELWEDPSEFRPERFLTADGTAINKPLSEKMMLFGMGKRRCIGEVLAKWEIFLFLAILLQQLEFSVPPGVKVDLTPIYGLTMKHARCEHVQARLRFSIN
Experiment: Inhibition of CYP activities by GA in HLMs (phenacetin)
Format: biochemical
Conditions: human, human liver microsomes, probe phenacetin 25 µM; CYP1A2-30min; GA 1000.0000; vs control; read-out: Relative activity (%)
observable: activity at 30 min, 1000 µM (%)
Please reply with the bare figure in % and do not write the unit itself.

Suppose we examine the compound CC1(C)[C@@H](O)CC[C@]2(C)[C@H]3C(=O)C=C4[C@@H]5C[C@@](C)(C(=O)O)CC[C@]5(C)CC[C@@]4(C)[C@]3(C)CC[C@@H]12 [GA, Glycyrrhetinic acid] ; what activity at 30 min, 1000 µM value has been reported?
5.73

----------
test: Toxicokinetics of BAK in rat plasma after a single oral dose; format: in vivo, Sprague–Dawley rats; details: Sprague-Dawley, rat, plasma, po, 200 mg/kg, 12.00 h after single oral dose
observable: concentration at 12 h (ng/mL)
Please reply with the bare figure in ng/mL and do not write the unit itself.

Suppose we examine the compound C=C[C@@](C)(/C=C/c1ccc(O)cc1)CCC=C(C)C ; what concentration at 12 h value has been reported?
154

----------
biological target: CYP2D6 (Homo sapiens); construct: was investigated in HLMs; tissue iPhase Pharmaceutical Services (Beijing, China) Lot # 7MMC011; host or cells: pooled human liver microsomes; test: Inhibition of CYP activities by GA in HLMs (dextromethorphan); format: biochemical; details: human, human liver microsomes, probe dextromethorphan (10 µM); CYP2D6-30min; GA 31.25; vs control; read-out: Relative activity (%)
Sequence (P10635 whole entry): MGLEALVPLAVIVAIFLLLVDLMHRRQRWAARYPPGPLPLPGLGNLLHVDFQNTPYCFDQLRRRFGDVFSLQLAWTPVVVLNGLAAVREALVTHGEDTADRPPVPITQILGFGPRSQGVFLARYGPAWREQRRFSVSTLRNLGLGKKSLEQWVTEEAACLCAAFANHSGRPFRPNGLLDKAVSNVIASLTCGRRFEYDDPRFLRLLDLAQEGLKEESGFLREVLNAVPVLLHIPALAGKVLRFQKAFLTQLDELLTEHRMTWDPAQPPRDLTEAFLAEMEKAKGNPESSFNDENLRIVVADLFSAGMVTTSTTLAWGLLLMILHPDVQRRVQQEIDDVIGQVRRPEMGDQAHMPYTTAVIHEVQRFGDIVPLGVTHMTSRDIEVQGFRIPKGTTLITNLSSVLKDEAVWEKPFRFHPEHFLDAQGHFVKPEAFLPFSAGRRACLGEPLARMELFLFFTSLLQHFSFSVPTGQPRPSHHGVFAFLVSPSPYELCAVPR
observable: activity at 30 min, 31.25 µM
Could you write the number and then its unit?

Suppose we examine the compound CC1(C)[C@@H](O)CC[C@]2(C)[C@H]3C(=O)C=C4[C@@H]5C[C@@](C)(C(=O)O)CC[C@]5(C)CC[C@@]4(C)[C@]3(C)CC[C@@H]12 ; what activity at 30 min, 31.25 µM value has been reported?
91.1%

----------
experiment: Toxicokinetics of BAK in rat plasma after a single oral dose; type: in vivo, Sprague–Dawley rats; details: Sprague-Dawley, plasma; rat, single oral; BAK 200 mg/kg, with ABT or GA 100 mg/kg where named; read-out: AUC0−24 of BAK
observable: AUC(0-t) (µg·h/mL)
Please reply with the bare figure in µg·h/mL and do not write the unit itself.

Suppose we examine the molecule C=C[C@@](C)(/C=C/c1ccc(O)cc1)CCC=C(C)C [BAK, Bakuchiol] ; what AUC(0-t) value has been reported?
7.26
